Target system: recombinant human syndecan-4 (human, UniProt P31431 19-198)
Assay overview: SPR; Biacore T100; NT4-biotin captured on streptavidin on a CM5 chip; HSPG diluted in HBS-EP+ (Hepes 10 mM, NaCl 150 mM, EDTA 3.4 mM, 0.05% p20, pH 7.4) injected over it; 1:1 Langmuir model
Run conditions: both partners purified
pKd: −log10 of the molar value.
Endpoint name: pKd

ELYENKPRRPYIL (pyroglutamate at position 1 (pyE); the four arms are built on a branching core of lysines, K2K-PEG12-K(biotin), the 13-amino-acid arm of the tetrabranched peptide; the first letter is pyroglutamate (printed pyE); Tetrabranched: four copies of the arm joined by their C-termini to the amines of a three-lysine core (K2K), followed by PEG12 and Lys(biotin); The core is not written as a chain; also called NT4 peptide; NT4 conjugated with biotin; source: synthetic peptide (Fmoc chemistry, HPLC purified); not …) [NT4-biotin (pyELYENKPRRPYIL)4K2K-PEG12-K(biotin)] :: 6.59
